Reference source for all entries: paper PMC10786891

Molecular target: T1, EsCas13d, nuclease-dead (Eubacterium siraeum, UniProt B0MS50, R295A;H300A;R849A;H854A)
T1 sequence: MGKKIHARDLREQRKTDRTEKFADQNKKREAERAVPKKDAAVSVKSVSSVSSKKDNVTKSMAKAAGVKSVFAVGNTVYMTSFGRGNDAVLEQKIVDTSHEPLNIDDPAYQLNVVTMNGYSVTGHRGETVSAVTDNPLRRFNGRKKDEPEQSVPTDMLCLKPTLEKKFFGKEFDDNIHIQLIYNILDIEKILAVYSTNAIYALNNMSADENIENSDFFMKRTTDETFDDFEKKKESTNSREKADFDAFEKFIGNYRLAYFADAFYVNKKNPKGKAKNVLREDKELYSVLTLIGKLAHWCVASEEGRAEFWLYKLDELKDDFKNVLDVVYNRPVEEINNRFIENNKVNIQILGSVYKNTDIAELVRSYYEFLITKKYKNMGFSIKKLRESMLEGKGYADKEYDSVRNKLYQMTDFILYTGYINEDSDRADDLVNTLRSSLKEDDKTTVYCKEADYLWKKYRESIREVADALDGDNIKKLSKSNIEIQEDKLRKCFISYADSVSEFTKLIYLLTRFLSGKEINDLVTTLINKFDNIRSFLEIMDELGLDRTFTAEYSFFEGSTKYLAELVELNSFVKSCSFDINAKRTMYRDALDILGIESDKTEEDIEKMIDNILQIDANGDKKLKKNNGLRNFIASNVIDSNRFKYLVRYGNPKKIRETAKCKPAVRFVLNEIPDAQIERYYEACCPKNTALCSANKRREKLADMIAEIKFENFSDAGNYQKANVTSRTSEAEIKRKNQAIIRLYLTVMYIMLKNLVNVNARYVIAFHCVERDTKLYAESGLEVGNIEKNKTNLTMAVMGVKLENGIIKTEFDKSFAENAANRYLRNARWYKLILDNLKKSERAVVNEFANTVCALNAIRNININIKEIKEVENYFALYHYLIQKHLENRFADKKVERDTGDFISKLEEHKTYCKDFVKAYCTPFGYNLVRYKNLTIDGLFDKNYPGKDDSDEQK
Experiment: crRNA (strand 1, pre-loaded); Mg2+; 40 mM Tris-HCl pH 7.5, 150 mM NaCl, 6 mM MgCl2, 1 mM DTT, 0.1% Tween-20, 0.2 mg/ml BSA; 25 C; 10 min per concentration, then washed
Conditions: tags: His6-TwinStrep-SUMO cleaved; N-terminal SNAP kept (SNAP-Surface 488); label: 3' end held by stalled T7 RNA polymerase
Field: pKd. Provide a value for each of the binders that follow.
Give only the number. pKd is defined as minus log10 of concentration in molar units.

q: Item under review: target 1 insU 3' of 14,insC 3' of 9 (mixed) RNA 1: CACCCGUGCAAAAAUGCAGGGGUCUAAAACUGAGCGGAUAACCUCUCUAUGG RNA 2: GGGAAUGGAUCCACAUCUACGAAUUCGUACCAUAGAGAUGGUUACUCCGCUCACCGAGAUCGGAAGAGCACACGU . Reported pKd?
a: 7.34

q: Item under review: target 1 insU 3' of 12,insG 3' of 10 (mixed) RNA 1: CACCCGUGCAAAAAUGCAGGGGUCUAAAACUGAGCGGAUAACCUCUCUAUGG RNA 2: GGGAAUGGAUCCACAUCUACGAAUUCGUACCAUAGAGAGGUUUGAUCCGCUCACCGAGAUCGGAAGAGCACACGU . Reported pKd?
a: 7.88

q: Item under review: target 1 insA 3' of 22,insA 3' of 6 (mixed) RNA 1: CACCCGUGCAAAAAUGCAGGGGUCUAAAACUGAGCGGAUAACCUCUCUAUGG RNA 2: GGGAAUGGAUCCACAUCUACGAAUUCGUACACAUAGAGAGGUUAUCCAGCUCACCGAGAUCGGAAGAGCACACGU . Reported pKd?
a: 7.65

q: Item under review: target 1 MT 5'PFS GUA 3'PFS UCC (mixed) RNA 1: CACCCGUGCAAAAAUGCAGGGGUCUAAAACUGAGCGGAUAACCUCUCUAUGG RNA 2: GGGAAUGGAUCCACAUCUACGAAUUCGUACCAUAGAGAGGUUAUCCGCUCAUCCAGAUCGGAAGAGCACACGU . Reported pKd?
a: 8.14

q: Item under review: target 1 insC 3' of 14,insA 3' of 8 (mixed) RNA 1: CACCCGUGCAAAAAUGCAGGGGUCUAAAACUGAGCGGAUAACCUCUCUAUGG RNA 2: GGGAAUGGAUCCACAUCUACGAAUUCGUACCAUAGAGACGGUUAUACCGCUCACCGAGAUCGGAAGAGCACACGU . Reported pKd?
a: 7.31

q: Item under review: target 2 MT 5'PFS CUC 3'PFS CAU (mixed) RNA 1: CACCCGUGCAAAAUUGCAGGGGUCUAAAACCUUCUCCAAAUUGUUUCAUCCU RNA 2: GGGAAUGGAUCCACAUCUACGAAUUCCUCAGGAUGAAACAAUUUGGAGAAGCAUAGAUCGGAAGAGCACACGU . Reported pKd?
a: 8.74

q: Item under review: target 2 MT 5'PFS AGG 3'PFS UCU (mixed) RNA 1: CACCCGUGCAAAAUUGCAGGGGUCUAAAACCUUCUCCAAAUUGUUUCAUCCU RNA 2: GGGAAUGGAUCCACAUCUACGAAUUCAGGAGGAUGAAACAAUUUGGAGAAGUCUAGAUCGGAAGAGCACACGU . Reported pKd?
a: 7.86
